Tested on: hypersecretion
protocol-details: Anti-secretory activity test (Shay et al)
Format: in vivo
Design: key: NS: Not Significant
applied-conditions: 30 mg/kg
reported-metric: Anti-secretory, % change in Vol.

Guide cases for Anti-secretory, % change in Vol., answers given:
C[n+]1ccccc1SC(c1ccccc1)c1ccccc1 [Example 39]; NS
C[n+]1ccccc1SCc1cccc(C(F)(F)F)c1 [Example 37]; NS
C[n+]1ccc(SCc2ccccc2)cc1 [Example 23, 4-Benzylthio-1-methylpyridinium bromide]; NS
COc1cccc(CSc2cccc[n+]2C)c1 [Example 36]; NS
C[n+]1ccccc1SCC(=O)c1ccccc1 [Example 15]; NS

The compound C[n+]1ccccc1SCc1ccc(Br)cc1 [Example 13] showed Anti-secretory, % change in Vol. equal to NS

Entry c1ccc(CSc2ccncc2)cc1 [Example 34, 4-Benzylmercaptopyridine] , Anti-secretory, % change in Vol. reported as NS

Short answer for O=[N+]([O-])c1ccc(C[n+]2ccccc2SCc2ccccc2)cc1 [Example 41] : Anti-secretory, % change in Vol. was NS

Given item Cc1ccccc1CSc1cccc[n+]1C [Example 33] , the value recorded as its Anti-secretory, % change in Vol. is NS

Entry C[n+]1ccccc1SCc1cccc([N+](=O)[O-])c1 [Example 32] ; Anti-secretory, % change in Vol. = NS
